# system-name: Breast cancer type 1 susceptibility protein (Homo sapiens)
# assay-text: qHTS Assay for Inhibitors of BRCT-Phosphoprotein Interaction (Green Fluorophore);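 note: plate controls were peptide without protein for full effect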
# assay-setup: BRCA1 BRCT-phosphopeptide binding, green fluorescence polarization; series mostly up to 76.9 µM
Out of some 75,000 compounds screened, about 35 (0.05%) were called active. The entries come from a sample that favours actives as a whole.

compound	activity change, negative = inhibition
COC1C[C@@H](O[C@@H]2C(C)C(=O)OC(C)C(C)C(O)C(C)C(=O)[C@@]3(CO3)CC(C)C(OC3OC(C)CC(N(C)C)C3O)C2C)OC(C)[C@@H]1O (stereo partly specified)	-1.55% [at 3.08 µM] (inactive)
CCn1c(CNC(=O)c2ccc(OC)c(OC)c2)nnc1SCC(=O)Nc1ccccc1	inactive
Cc1ccccc1OCC(=O)Nc1ccc(N2CCN(C(=O)C(C)C)CC2)c(Cl)c1	inactive
CC(=O)c1nc(N2C(=O)C3CC=C(C)CC3C2=O)sc1C (stereo unspecified)	inactive
CCC1=C(OC(=O)N(CC)CC)N2C(=O)OC(=NCCc3c[nH]c4ccccc34)[C@]2(C)[C@H]2C1=CC[C@H]1C(=O)N(CC)C(=O)[C@H]12	inactive
C(=C\c1ccccc1)/CSc1nnc(-c2cccnc2)n1Cc1ccco1	inactive
Cc1cc(C)c(C#N)c(SCS(=O)c2ccc(C(C)(C)C)cc2)n1 (stereo unspecified)	inactive
CCNc1nc(NCC)nc(N(C)n2cnnc2)n1	inactive
COc1cccc(CNC(=O)C2CCN(S(=O)(=O)c3cccc4cccnc34)CC2)c1	inactive
COC(=O)[C@@H]1C[C@@]2(O)[C@H](O)[C@H](O)[C@H](O)C[C@H]2N1Cc1ccc(C(C)(C)C)cc1	inactive
CCOC(=O)CN1C(=O)C(O)(CC(=O)c2ccccn2)c2ccccc21 (stereo unspecified)	inactive
CCCCOc1ccc(-c2nnc(-c3ccco3)o2)cc1	inactive
CC(=O)c1sc2nc(SCC(=O)N3CCCCC3)[nH]c(=O)c2c1C	inactive
CCCCCCCCCc1ccc(OCCOCCOCCOCCOCCOCCOCCOCCOCCO)cc1	inactive
O=c1c(O)c(-c2ccc(O)cc2)oc2ccccc12	-3.22% [at 3.08 µM] (inactive)
CN(C)CCNC(=O)C(C(=O)c1ccccc1)n1ccccc1=O (stereo unspecified)	inactive
CN(CCOc1ccc(CC2SC(=O)NC2=O)cc1)c1ccccn1 (stereo unspecified)	-0.73% [at 3.08 µM] (inactive)
Cn1cnc2c1c(=O)n(Cc1c(Cl)cccc1Cl)c(=O)n2C	inactive
COC(=O)c1ccc(C23CC4(C2)[C@H](CN(Cc2cccnc2)[C@@H]4c2ccccc2)C3c2ccc(Cl)nc2)cc1 (stereo partly specified)	inactive
COCc1nc2ccccc2n1Cc1ccccc1Br	inactive
Cc1cc(NC(=O)COC(=O)c2ccc(F)c(S(=O)(=O)N3CCOCC3)c2)no1	inactive

====

# system-name: Breast cancer type 1 susceptibility protein (Homo sapiens)
# assay-text: qHTS Assay for Inhibitors of BRCT-Phosphoprotein Interaction (Green Fluorophore);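 note: plate controls were peptide without protein for full effect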
# assay-setup: BRCA1 BRCT-phosphopeptide binding, green fluorescence polarization; series mostly up to 76.9 µM
Out of some 75,000 compounds screened, about 35 (0.05%) were called active. This is one part of a sample in which actives are shown more often than they occur.

compound	activity change, negative = inhibition
COc1cccc([C@H]2Oc3ccc(OC)cc3/C(=N\OCC[C@@H]3C=C[C@H](OC(C)=O)[C@H](COC(C)=O)O3)[C@@H]2O)c1	1.43% [at 15.4 µM] (inactive)
CCC1=C(OC(=O)N(CC)CC)N2C(=O)OC(=NCC3CC3)[C@]2(C)[C@H]2C1=CC[C@H]1C(=O)N(CC(=O)OC)C(=O)[C@H]12	inactive
C[C@H](CCC(=O)O)[C@H]1CC[C@@H]2[C@H]3CC[C@H]4C[C@H](O)CC[C@@]4(C)[C@@H]3CC[C@@]21C	-0.353% [at 15.4 µM] (inactive)
CCOC(=O)C1=C(CNC2CCCCC2)NC(=O)NC1c1cc(C)ccc1C (centres undefined)	inactive
